Assay: chemical genetic growth profiling, strain panel (AID 1159580);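 also: tested at 20 µM; growth read once vehicle control cultures reached saturation at 30 °C; 1 = growth at the plate median or of vehicle wells; lower values mean less growth of the strain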
Conditions: S. cerevisiae deletion strains, growth OD, locus YOR083W, strain WHI5 (second series), active compounds read low
The whole screen tested about 5,500 compounds, of which about 2,000 (36%) were called active. Inconclusive results (about 18%) are left out. Some of the results follow.
Threshold 1: normalized growth strictly smaller gives label 1, otherwise label 0.

Study these solved cases before continuing.
| Query smiles | Class assignment |
| --- | --- |
| Cc1ccc(O)c(N=Nc2ccccc2)n1 | label 1 |
| CCN1C(=O)C=CC1=O | label 0 |

Switching to the query record.
Problem: # strict comparison: is reported normalized growth < 1? input = `CCn1cc(C(=O)O)c(=O)c2ccc(Cc3ccccc3)nc21`
Result: label 0

---

normalized growth listing for selected molecules.
Test: chemical genetic growth profiling, strain panel (AID 1159580)
Conditions: S. cerevisiae deletion strains, growth OD, locus YDL134C, strain PPH21, active compounds read low
Out of some 5,500 compounds screened, about 2,000 (36%) were called active. Roughly 18% stayed inconclusive and do not appear here. The list shows a part of the results.
Could you respond with only the numeric value?

Examples with their reported normalized growth follow.
| Molecule | normalized growth |
| --- | --- |
| CCOC(N)=O | 1.01 |
| NC(=O)CCSCCC(N)=O | 1.02 |
| CC1=C(/C=C/C(C)=C/C=C/C(C)=C\C(=O)O)C(C)(C)CCC1 | 1 |
| CC1=C(/C=C/C(C)=C/C=C/C(C)=C/CO)C(C)(C)CCC1 | 1.02 |
| CN(Cc1cnc2nc(N)nc(N)c2n1)c1ccc(C(=O)NC(CCC(=O)O)C(=O)O)cc1 (stereo not given) | 1 |

Problem: Which measured normalized growth value corresponds to CC(=O)OCC(=O)[C@@]12OC(C)(C)O[C@@H]1CC1C3C[C@H](F)C4=CC(=O)C=C[C@]4(C)[C@@]3(F)[C@@H](O)C[C@@]12C (stereo not given in full) ?
Result: 0.99

Problem: Now the molecule `CC1=C(/C=C/C(C)=C/C=C/C(C)=C/C(=O)O)C(C)(C)CCC1`
Result: 1.01

Problem: Now consider CC(=O)O[C@H]1C[C@@H](OC(C)=O)C(C)(C)C2C[C@@H](OC(C)=O)[C@]3(C)C(CC[C@@]4(C)[C@H](c5ccoc5)C(=O)[C@H]5O[C@]543)[C@]21C (stereo not given in full) and answer again.
Result: 1.02

Problem: Quick one: Nc1nc(N)c2nc(CNc3ccc(C(=O)NC(CCC(=O)O)C(=O)O)cc3)cnc2n1 (stereo not given)
Result: 1.02

Problem: Follow-up item: `CC1=C(/C=C/C(C)=C/C=C/C(C)=C/C=C/C=C(C)/C=C/C=C(C)/C=C/C2=C(C)CCCC2(C)C)C(C)(C)CCC1`
Result: 1.01

---

Experiment: chemical genetic growth profiling, strain panel (AID 1159580)
Details: S. cerevisiae deletion strains, growth OD, locus YOR080W, strain dia2, active compounds read low
Out of some 5,500 compounds screened, about 2,000 (36%) were called active. Roughly 18% stayed inconclusive and do not appear here. The list shows a part of the results.
So basically: is normalized growth under 1? Then Yes. Not under? Then No.

Problem: hey, is normalized growth for `CCCc1cc(OC)c2c(c1)OCO2` lower than 1 or not?
Result: Yes

Problem: Same lookup for CC[C@@H](C(=O)[C@@H](C)[C@@H](O)[C@H](C)[C@@H]1O[C@@H]([C@@H](CC)C(=O)O)CC[C@@H]1C)[C@H]1OC2(C=C[C@@H](O)[C@]3(CC[C@@](C)([C@H]4CC[C@](O)(CC)[C@H](C)O4)O3)O2)[C@H](C)C[C@@H]1C (some centres undefined) , please.
Result: Yes

Problem: Proceed to `CS(=O)(=O)OCCCCOS(C)(=O)=O`
Result: No

---

Experiment: chemical genetic growth profiling, strain panel (AID 1159580)
Details: S. cerevisiae deletion strains, growth OD, locus YPL106C, strain sse1, active compounds read low
The whole screen tested about 5,500 compounds, of which about 2,000 (36%) were called active. Another 18% or so got no clear call; they are omitted. The list shows a part of the results.
Endpoint name: normalized growth
When you answer, write just the number.

| Compound | Result |
| --- | --- |
| CC[C@@H](C(=O)[C@@H](C)[C@@H](O)[C@H](C)[C@@H]1O[C@@H]([C@@H](CC)C(=O)O)CC[C@@H]1C)[C@H]1OC2(C=C[C@@H](O)[C@]3(CC[C@@](C)([C@H]4CC[C@](O)(CC)[C@H](C)O4)O3)O2)[C@H](C)C[C@@H]1C (some centres undefined) | 0.932 |
| C[C@H](COc1ccccc1)N[C@H](C)[C@H](O)c1ccc(O)cc1 | 0.948 |
| CC(COc1ccccc1)N(CCCl)Cc1ccccc1 (centres undefined) | 0.949 |
| CN(C)CCCO[C@H]1[C@@H](C(O)CO)OC2OC(C)(C)O[C@@H]21 (some centres undefined) | 0.96 |
| NC(=O)c1cc[n+](CC2=C(C(=O)O)N3C(=O)C(NC(=O)C(c4ccccc4)S(=O)(=O)[O-])C3SC2)cc1 (centres undefined) | 1.02 |
| CCn1cc(C(=O)O)c(=O)c2cnc(N3CCCC3)nc21 | 1.03 |
| CCCN(CCC)C(=O)C(CCC(=O)O)NC(=O)c1ccccc1 (centres undefined) | 0.955 |
| CCCc1cc(OC)c2c(c1)OCO2 | 0.976 |

Problem: Look up normalized growth: `O=C(O)CCC(=O)c1ccc(-c2ccccc2)cc1`
Result: 1.06

---

Assay: chemical genetic growth profiling, strain panel (AID 1159580);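 also: tested at 20 µM; growth read once vehicle control cultures reached saturation at 30 °C; 1 = growth at the plate median or of vehicle wells; lower values mean less growth of the strain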
Settings: S. cerevisiae deletion strains, growth OD, locus YGL173C, strain kem1, active compounds read low
The campaign covered roughly 5,500 compounds. About 2,000 (36%) were called active. Not shown: some 18% with an inconclusive outcome. Some of the results follow.
Endpoint name: normalized growth

| Compound | Result |
| --- | --- |
| O=C(O)c1cc(O)c(O)c(O)c1 | 0.994 (inactive) |
| O=C1N=C(O)CN1/N=C\c1ccc(-c2ccc([N+](=O)[O-])cc2)o1 | 0.99 (inactive) |
| NC(=O)N/N=C\c1ccc([N+](=O)[O-])o1 | 1.01 (inactive) |
| O=C1CN(/N=C\c2ccc([N+](=O)[O-])o2)C(=O)N1 | 0.987 (inactive) |
| O=C(O)c1cc(=O)c(O)c2c(O)c(O)ccc2c1 | 1 (inactive) |

Problem: Returns the measured normalized growth for the input compound. Input: `CC[C@]12CCCN3CCc4c(n(c5ccccc45)[C@](O)(C(=O)OC)C1)[C@@H]32`
Result: 0.984 (inactive)

---

Quick list: normalized growth per entry.
Assay: chemical genetic growth profiling, strain panel (AID 1159580);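 also: tested at 20 µM; growth read once vehicle control cultures reached saturation at 30 °C; 1 = growth at the plate median or of vehicle wells; lower values mean less growth of the strain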
Settings: S. cerevisiae deletion strains, growth OD, locus YJL092W, strain hpr5, active compounds read low
About 2,000 (36%) of roughly 5,500 compounds were called active. About 18% were inconclusive and are not listed. Some of the results follow.
// return a plain number; no unit text

Known normalized growth results, listed for orientation:
| Molecule | Endpoint name | Result |
| --- | --- | --- |
| CCC(COC(=O)c1cc(OC)c(OC)c(OC)c1)(c1ccccc1)N(C)C (configuration not stated) | normalized growth | 0.973 |
| O=C(/C=C/c1ccc(O)c(O)c1)O[C@@H]1C[C@](O)(C(=O)O)C[C@@H](O)[C@H]1O | normalized growth | 0.969 |
| CCOP(=S)(OCC)Oc1ccc2c(C)c(Cl)c(=O)oc2c1 | normalized growth | 0.944 |

Problem: So what does the record say about normalized growth for `c1ccc2[nH]c(-c3cscn3)nc2c1` ?
Result: 0.997

Problem: Next up: `Oc1ccc(/C=C/c2cc(O)cc(O)c2)cc1`
Result: 0.995

Problem: Cool, now COc1ccccc1OCC(O)CN1CCN(CC(=O)Nc2c(C)cccc2C)CC1 (configuration not stated)
Result: 1

Problem: And `OC/C=C/c1ccc(O)c(O)c1` ?
Result: 0.995

Problem: What do you have for CC1=CC(=O)CC(C)(C)C1(O)/C=C/C(C)=C\C(=O)O (configuration not stated) ?
Result: 1.02

Problem: Here is the next molecule: `COc1ccc(CN(CCN(C)C)c2ncccn2)cc1`
Result: 1.03

---

Test: chemical genetic growth profiling, strain panel (AID 1159580);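 also: tested at 20 µM; growth read once vehicle control cultures reached saturation at 30 °C; 1 = growth at the plate median or of vehicle wells; lower values mean less growth of the strain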
Details: S. cerevisiae deletion strains, growth OD, locus YDR297W, strain sur2
About 2,000 (36%) of roughly 5,500 compounds were called active. Not shown: some 18% with an inconclusive outcome. Cut-off read from the data, not from the text of the source: active = normalized growth mostly below about 0.91 (no sharp cut-off); inconclusive = no clear call, values can overlap the other calls; inactive = mostly above about 0.92. The list shows a part of the results.
Your reply should match one of these outcome classes. class 1 = active, class 0 = inactive

Problem: Please let me know the test result on file for COc1cc2c(cc1O)CC1c3c(cc(O)c(OC)c3-2)CCN1C (stereo not given) .
Result: class 0

Problem: Next entry: `CC12CCC(CC1)C(C)(C)O2`
Result: class 0

Problem: Then this compound: O=C(NC(=O)c1c(F)cccc1F)Nc1cc(Cl)c(OC(F)(F)C(F)C(F)(F)F)cc1Cl (stereo not given)
Result: class 0

Problem: Try this compound too: `CC1=C(/C=C/C(C)=C/C=C/C(C)=C/C=C/C=C(C)/C=C/C=C(C)/C=C/C2=C(C)CCCC2(C)C)C(C)(C)CCC1`
Result: class 0

Problem: Same again, this time with `COc1ccc2c(c1O)-c1c(OC)c(OC)cc3c1[C@H](C2)N(C)CC3`
Result: class 0

Values compiled from PubChem BioAssay AID1159580.
